- measurement_notes: protein stability index of a GFP-peptide fusion (yeast GPS) (PSI 1-4); higher = more stable; sorted into four equal gates, so the index is relative within each strain
- test_context: san1∆
Measured protein stability index, listed per entry for reference.
parameter: protein stability index

chain="KWKPVLSHIVYFLVLSP [RPN5]" parameter="protein stability index" measured_number=1.2
chain="KNTMFEKSDALVGVYRQ [SMC1]" parameter="protein stability index" measured_number=2.7
chain="SKTGSVDTLHNKEGTLE [SSN2]" parameter="protein stability index" measured_number=3.19
chain="DKSTKTAEAPTLSFNFS [YOR098C/NUP1]" parameter="protein stability index" measured_number=3.24
chain="YEYGAVSVLLISKDCSA [BRR2]" parameter="protein stability index" measured_number=1.91
chain="DNDFIINDFKKIGRENE [POP5]" parameter="protein stability index" measured_number=3.3
chain="FMLRKQDPKTLVALLSR [SSN2]" parameter="protein stability index" measured_number=1.85
chain="NVANVSGSTEKAFKICE [SIR3]" parameter="protein stability index" measured_number=3.18
chain="SSFSKKTLTEEVTKSSH [YIL149C/MLP2]" parameter="protein stability index" measured_number=2.77
chain="GASINSMKANTSTNPNG [ARP7]" parameter="protein stability index" measured_number=2.74
chain="NDTSSGTNAMLPSPESL [SNF5]" parameter="protein stability index" measured_number=2.74
chain="ALPHVEINQVSLALVIR [RGR1]" parameter="protein stability index" measured_number=2.24
chain="SPYNADFDGDEMNLHVP [RPO21]" parameter="protein stability index" measured_number=3.15
chain="IAMPKRRMAFKPFGSAK [YLR335W/NUP2]" parameter="protein stability index" measured_number=3.11

* * *

- measurement_notes: protein stability index of a GFP-peptide fusion (yeast GPS) (PSI 1-4); higher = more stable; sorted into four equal gates, so the index is relative within each strain
- test_context: doa10∆
parameter: protein stability index

chain="KDRISHEVVQDDSFSLL [PCI8]" measured_number=3.19
chain="YNIDANVIDTQRKNGVT [ECM29]" measured_number=2.75
chain="MSVEPVVVIDGKGHLVG [RPL16A]" measured_number=3.13
chain="KYLSDIMELPGVYSDDE [SRP68]" measured_number=3.14
chain="KYPMYMQLEEELMKLDG [MED6]" measured_number=2.14
chain="YSLIRETNGYDPFSIYG [SNF5]" measured_number=1.23
chain="NTNNNNNPANNTNNNNS [SWI1]" measured_number=3.06
chain="PPKPRKVLQLLRLTRIN [RPL7A]" measured_number=1.95
chain="KLVRESELLGGTFKSTL [QCR2]" measured_number=2.53
chain="LRSDFYILANHYLSRVL [YJL039C/NUP192]" measured_number=2.81
chain="TQPKAEATQDDDFDMLF [NUT1]" measured_number=2.73
chain="SNQFKRSLATAVATPKA [COR1]" measured_number=1.55
chain="WMLSICVEWRLPEIAKE [YJR042W/NUP85]" measured_number=1.2
chain="YVDEQSKNELKKAFTSY [RPS16A]" measured_number=3.06

* * *

- measurement_notes: protein stability index of a GFP-peptide fusion (yeast GPS) (PSI 1-4); higher = more stable; sorted into four equal gates, so the index is relative within each strain
- test_context: doa10∆
Measured protein stability index, listed per entry for reference.
parameter: protein stability index

chain="RITDASLFQLSKLGKNL [GRR1]" parameter="protein stability index" measured_number=2.38
chain="GSSGGVIRMVVLTAAGV [PRE3]" parameter="protein stability index" measured_number=2.33
chain="QLILSDVDPEFYLKYVD [RET1]" parameter="protein stability index" measured_number=3.25
chain="FLTNYNVRMDTMANILY [RPB2]" parameter="protein stability index" measured_number=3.58
chain="ISDYQQLESIYFRILLP [SWI1]" parameter="protein stability index" measured_number=2.24
chain="VLEKYEVIGYIAAGTYG [SSN3]" parameter="protein stability index" measured_number=1.34
chain="HSISEAENMLEELRGQQ [SMC4]" parameter="protein stability index" measured_number=3.27
chain="EVLCSRIIEKSVRRSGA [RRP45]" parameter="protein stability index" measured_number=2.38
chain="GEDFMEVDYEDKDNPVD [SRB4]" parameter="protein stability index" measured_number=3.56
chain="LSDIETAVNGIDTDLFG [YGL172W/NUP49]" parameter="protein stability index" measured_number=3.11
chain="NFSNVTDLTNNSTDGAK [YIL149C/MLP2]" parameter="protein stability index" measured_number=2.82
chain="ETYVASYVVPRLYLKDQ [ECM29]" parameter="protein stability index" measured_number=2.46
chain="FSAPIRPDIVHTVFTSV [RPL4A]" parameter="protein stability index" measured_number=1.7
chain="QPSKVSSNVQQPQQQLG [RTT102]" parameter="protein stability index" measured_number=2.82
chain="DKKQQTIDEQSQISPEK [RPN1]" parameter="protein stability index" measured_number=3.29
chain="FGIYILTQGINGKEVPL [MED1]" parameter="protein stability index" measured_number=1.48
chain="SFTDILKSAIRDEIAKN [RPN12]" parameter="protein stability index" measured_number=2.76
chain="LLSSSNFEATKKSVLKQ [COR1]" parameter="protein stability index" measured_number=2.81
chain="TNAKIPQFDSTQPKSSS [SSN3]" parameter="protein stability index" measured_number=3.03
chain="TPKGNESEQELSLHTGF [MTR3]" parameter="protein stability index" measured_number=3.22
chain="NVFARLSRLLSLWEVFQ [RPC82]" parameter="protein stability index" measured_number=1.78
chain="SNLSPDLKFKRHKNKHI [DSN1]" parameter="protein stability index" measured_number=2.71
chain="VDLIEKFLRYNPLEKRD [RPB10]" parameter="protein stability index" measured_number=2.91
chain="ASEYIETLGLKYLGLKP [FAS1]" parameter="protein stability index" measured_number=3.27
chain="VDNVWADVYAKALEGKD [RPP1B]" parameter="protein stability index" measured_number=3.14
chain="QRQDFERVRLRPEQLSN [SNF6]" parameter="protein stability index" measured_number=1.98
chain="FKLFNKYRPETAAEKKE [RPL8A]" parameter="protein stability index" measured_number=2.56
chain="VVLFNRQPSLHRLSILS [RPO31]" parameter="protein stability index" measured_number=1.65
chain="TVKENESDSKLQCHISG [UBP6]" parameter="protein stability index" measured_number=3.28
chain="NNIFKEFTSKIGFTIKE [SMC1]" parameter="protein stability index" measured_number=2.34
chain="IRDPLTQTGLLQDLEEA [RPC82]" parameter="protein stability index" measured_number=3.31
chain="MFRNNYDGDTVTFSPTG [PRE5]" parameter="protein stability index" measured_number=2.41
chain="NLAIVELVRLLIIDEIH [BRR2]" parameter="protein stability index" measured_number=2.58
chain="SPNPTLQPVIPGGAASK [SNF5]" parameter="protein stability index" measured_number=3.23
chain="VIVLSNISHLLEIASSI [SWI1]" parameter="protein stability index" measured_number=2.35
chain="SMRIQILRRQAILRQQQ [GAL11]" parameter="protein stability index" measured_number=3.19
chain="AKLNHLKKLEKFMELER [SWI3]" parameter="protein stability index" measured_number=2.9
chain="QLNCIDTQFTKLLDDNP [SRB8]" parameter="protein stability index" measured_number=2.44
chain="RALVEHIIQAKADAQRE [RPL19A]" parameter="protein stability index" measured_number=1.67
chain="ATLYIPKALRFDRLVAG [FAS2]" parameter="protein stability index" measured_number=2.88
chain="YENSISKDLRSVWKPIA [IRR1]" parameter="protein stability index" measured_number=2.58
chain="VKWQYDPNNPVDFDGLD [SNF12]" parameter="protein stability index" measured_number=2.74
chain="LPLISTDVLEISKQRTF [YMR129W/POM152]" parameter="protein stability index" measured_number=2.17
chain="KNQLRDWIRFVSTKTNE [RPL22A]" parameter="protein stability index" measured_number=2.3
chain="EIVRDILHTKESSNEAK [SIR4]" parameter="protein stability index" measured_number=2.75
chain="KIFQTTPEKDLFIGLFT [YCS4]" parameter="protein stability index" measured_number=2.1
chain="RARGPMQVLTRQPVEGR [RPB2]" parameter="protein stability index" measured_number=2.88
chain="PWFWLLPLWHLLNRIPR [POP1]" parameter="protein stability index" measured_number=2.57
chain="GMTKSNIYNFSPSERIE [BRR2]" parameter="protein stability index" measured_number=3.18
chain="MEEEQQRQERLRQQQQQ [RPN10]" parameter="protein stability index" measured_number=3.4
chain="KIITSRPLQKIMLLQLE [SIN4]" parameter="protein stability index" measured_number=2.12
chain="LEGSVSLPRFSKPVLIV [DIS3]" parameter="protein stability index" measured_number=2.67
chain="NGQSLSPVRSDSADVPA [YMR153W/NUP53]" parameter="protein stability index" measured_number=3.06
chain="ASELDESKDSIQDLIVK [SMC3]" parameter="protein stability index" measured_number=3.3
chain="FPGDSFPVDPTTPVKLG [RRP40]" parameter="protein stability index" measured_number=2.45
chain="PHTTLVNECIAQSHQRF [CDC53]" parameter="protein stability index" measured_number=2.79
chain="NSSEKNNNNNNNNNNNN [MED2]" parameter="protein stability index" measured_number=3.09
chain="YIEEKHPTIYESLPQYV [POP4]" parameter="protein stability index" measured_number=2.33
chain="QEELKKRQELEEASQQQ [MED2]" parameter="protein stability index" measured_number=2.96
chain="IIKGTDVYSPEKGSWEQ [BRR2]" parameter="protein stability index" measured_number=3.1
chain="LQEKISTELNNKQYELF [SWI1]" parameter="protein stability index" measured_number=2.51
